Where do the numbers come from? From paper PMC3504066.

Molecular target: EGFR kinase (Homo sapiens)
Construct: purchased Promega
Sequence (P00533 25-1210): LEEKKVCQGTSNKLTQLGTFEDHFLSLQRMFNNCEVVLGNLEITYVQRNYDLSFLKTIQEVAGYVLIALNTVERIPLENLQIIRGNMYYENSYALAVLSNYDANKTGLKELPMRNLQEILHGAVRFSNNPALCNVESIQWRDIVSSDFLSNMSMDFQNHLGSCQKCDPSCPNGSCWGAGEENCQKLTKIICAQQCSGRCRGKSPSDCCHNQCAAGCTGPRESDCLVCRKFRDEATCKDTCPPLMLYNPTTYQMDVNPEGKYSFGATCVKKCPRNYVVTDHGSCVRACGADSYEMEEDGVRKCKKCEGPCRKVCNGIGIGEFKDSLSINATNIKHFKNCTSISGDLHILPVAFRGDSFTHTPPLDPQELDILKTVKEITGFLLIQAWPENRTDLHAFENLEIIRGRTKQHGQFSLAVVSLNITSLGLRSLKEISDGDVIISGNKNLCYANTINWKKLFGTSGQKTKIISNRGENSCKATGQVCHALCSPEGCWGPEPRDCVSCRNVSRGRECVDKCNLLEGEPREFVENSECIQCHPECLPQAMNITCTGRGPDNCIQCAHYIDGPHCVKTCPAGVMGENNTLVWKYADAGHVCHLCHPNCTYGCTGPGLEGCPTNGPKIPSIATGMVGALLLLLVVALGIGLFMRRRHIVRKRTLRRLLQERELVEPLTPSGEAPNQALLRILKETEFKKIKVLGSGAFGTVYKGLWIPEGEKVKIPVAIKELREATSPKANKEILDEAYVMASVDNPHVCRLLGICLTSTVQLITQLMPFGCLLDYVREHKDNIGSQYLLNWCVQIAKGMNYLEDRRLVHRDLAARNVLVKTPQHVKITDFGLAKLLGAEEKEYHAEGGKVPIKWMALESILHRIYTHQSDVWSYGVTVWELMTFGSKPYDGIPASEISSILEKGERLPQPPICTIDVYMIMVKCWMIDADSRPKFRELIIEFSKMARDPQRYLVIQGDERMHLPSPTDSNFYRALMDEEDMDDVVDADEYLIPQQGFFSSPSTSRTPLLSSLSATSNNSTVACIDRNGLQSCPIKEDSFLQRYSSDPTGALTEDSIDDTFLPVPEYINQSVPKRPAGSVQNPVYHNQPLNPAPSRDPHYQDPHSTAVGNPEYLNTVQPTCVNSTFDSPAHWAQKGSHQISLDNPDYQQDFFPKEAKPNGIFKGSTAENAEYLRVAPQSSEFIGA
Assay: In vitro EGFR kinase assay (ADP-Glo Kinase Assay Kit, EGFR Kinase Enzyme System)
Type: biochemical
REPORTED PROPERTY: IC50 (nM)
One number for each entry, in nM.

Can you share its IC50? I mean this molecule: `COc1cc2c(Nc3ccc4nc(C(F)(F)F)[nH]c4c3)ncnc2cc1OCCCN1CCCCC1`
2000

Can you share its IC50? I mean this molecule: `COc1cc2c(Nc3ccc(Br)c(C(F)(F)F)c3)ncnc2cc1OCCCN1CCCCC1`
623

Please turn your attention to the following entry.
Can you share its IC50? I mean this molecule: `COc1cc2c(Nc3cc(C(F)(F)F)ccc3Cl)ncnc2cc1OCCCN1CCCCC1`
2670
